Assay: Human HepG2 cell viability assay in 384 well format
Type: toxicity, cell-based
Set-up: dose 125 nL, time 70.5 hour; concentration not given beside the values
Settings: HepG2 cells, read-out: Inhibition
observed-property: cytotoxicity at 70.5 h (%)

[
  {
    "molecule": "CC(C)N(C)Cc1cnc2n1CCN(Cc1ccco1)C2",
    "units": "%",
    "obs-value": -14
  },
  {
    "molecule": "O=C(NCCn1nc(-n2cncn2)ccc1=O)c1ccccc1Br",
    "units": "%",
    "obs-value": -5.84
  },
  {
    "molecule": "Cc1nc2n(n1)CC(Nc1ncnc3c1CCC3)CC2 (centres undefined)",
    "units": "%",
    "obs-value": -10.2
  },
  {
    "molecule": "CCCS(=O)(=O)N1CCCC(c2cccc(C(=O)O)c2)C1 (centres undefined)",
    "units": "%",
    "obs-value": -9.39
  },
  {
    "molecule": "CCc1nc(C2CCCN2C(=O)c2ccc3c(c2)[nH]c(=O)n3C)no1 (centres undefined)",
    "units": "%",
    "obs-value": 2.37
  },
  {
    "molecule": "c1ccc2c(c1)SCCC2NCc1ccc(N2CCOCC2)cc1 (centres undefined)",
    "units": "%",
    "obs-value": -3.16
  },
  {
    "molecule": "CC1COC2(CCN(C(=O)Cc3ccncc3)CC2)C1 (centres undefined)",
    "units": "%",
    "obs-value": -0.819
  },
  {
    "molecule": "CN(CC(=O)N1CCCCC1c1nc(C(C)(C)C)cs1)C1CC1 (centres undefined)",
    "units": "%",
    "obs-value": 1.94
  },
  {
    "molecule": "CCOCCn1c(=O)[nH]c2cc(C(=O)N(C)Cc3cc(C)[nH]n3)ccc21",
    "units": "%",
    "obs-value": -6.23
  },
  {
    "molecule": "CCOCC1CC2(CCN(Cc3ccccn3)CC2)CO1 (centres undefined)",
    "units": "%",
    "obs-value": -3.81
  },
  {
    "molecule": "O=C(CS(=O)(=O)Cc1ccc(F)cc1)NCc1ccccc1F",
    "units": "%",
    "obs-value": -8.79
  },
  {
    "molecule": "CNc1cc(-c2ccccc2CN)c2cc[nH]c2n1",
    "units": "%",
    "obs-value": 3.36
  },
  {
    "molecule": "Cc1cc(C)n(C2CCCN(C(=O)c3csc(C4CC4)n3)C2)n1 (centres undefined)",
    "units": "%",
    "obs-value": -11
  },
  {
    "molecule": "Cc1noc(C)c1CN1CCO[C@H]2CN(Cc3cccc(F)c3)C[C@H]21",
    "units": "%",
    "obs-value": -13.7
  },
  {
    "molecule": "CC(C)Oc1ccc(CNC(=O)CC(F)(F)F)cc1F",
    "units": "%",
    "obs-value": -18
  },
  {
    "molecule": "CC(Cn1cncn1)NCc1csc2c1CCCC2 (centres undefined)",
    "units": "%",
    "obs-value": -0.547
  },
  {
    "molecule": "CC(Nc1ncnc2c1CCNC2)c1ccc(C(C)(C)C)cc1 (centres undefined)",
    "units": "%",
    "obs-value": 2.81
  },
  {
    "molecule": "Cc1cc(-c2ccc(=O)n(C3CCN(S(C)(=O)=O)CC3)n2)c(C)o1",
    "units": "%",
    "obs-value": 17.2
  },
  {
    "molecule": "O=C(CNC(=O)C1(c2ccc(F)cc2F)CCC1)Nc1ccccn1",
    "units": "%",
    "obs-value": -3.32
  },
  {
    "molecule": "CCN(CC)Cc1cc(C(=O)N2CCCC(O)(CO)C2)c(C)o1 (centres undefined)",
    "units": "%",
    "obs-value": -7.27
  },
  {
    "molecule": "O=C(Cn1cc(I)cn1)N1CCc2ccccc2C1",
    "units": "%",
    "obs-value": -3.15
  },
  {
    "molecule": "CC(C)c1cc(C(F)(F)F)n2nc(C3CCN(S(C)(=O)=O)C3)cc2n1 (centres undefined)",
    "units": "%",
    "obs-value": -1.05
  },
  {
    "molecule": "CCc1onc(C)c1C(=O)N1CCN(c2ncc3c(n2)CCOC3)CC1",
    "units": "%",
    "obs-value": -1.33
  },
  {
    "molecule": "COCC(=O)N(Cc1cccc(C)c1)Cc1ccccc1OC",
    "units": "%",
    "obs-value": -4.3
  }
]
